Reference source: ChEMBL document CHEMBL1201862

# system.name: Apoptotic protease-activating factor 1 (Homo sapiens, UniProt O14727)
# Sequence (O14727 whole entry): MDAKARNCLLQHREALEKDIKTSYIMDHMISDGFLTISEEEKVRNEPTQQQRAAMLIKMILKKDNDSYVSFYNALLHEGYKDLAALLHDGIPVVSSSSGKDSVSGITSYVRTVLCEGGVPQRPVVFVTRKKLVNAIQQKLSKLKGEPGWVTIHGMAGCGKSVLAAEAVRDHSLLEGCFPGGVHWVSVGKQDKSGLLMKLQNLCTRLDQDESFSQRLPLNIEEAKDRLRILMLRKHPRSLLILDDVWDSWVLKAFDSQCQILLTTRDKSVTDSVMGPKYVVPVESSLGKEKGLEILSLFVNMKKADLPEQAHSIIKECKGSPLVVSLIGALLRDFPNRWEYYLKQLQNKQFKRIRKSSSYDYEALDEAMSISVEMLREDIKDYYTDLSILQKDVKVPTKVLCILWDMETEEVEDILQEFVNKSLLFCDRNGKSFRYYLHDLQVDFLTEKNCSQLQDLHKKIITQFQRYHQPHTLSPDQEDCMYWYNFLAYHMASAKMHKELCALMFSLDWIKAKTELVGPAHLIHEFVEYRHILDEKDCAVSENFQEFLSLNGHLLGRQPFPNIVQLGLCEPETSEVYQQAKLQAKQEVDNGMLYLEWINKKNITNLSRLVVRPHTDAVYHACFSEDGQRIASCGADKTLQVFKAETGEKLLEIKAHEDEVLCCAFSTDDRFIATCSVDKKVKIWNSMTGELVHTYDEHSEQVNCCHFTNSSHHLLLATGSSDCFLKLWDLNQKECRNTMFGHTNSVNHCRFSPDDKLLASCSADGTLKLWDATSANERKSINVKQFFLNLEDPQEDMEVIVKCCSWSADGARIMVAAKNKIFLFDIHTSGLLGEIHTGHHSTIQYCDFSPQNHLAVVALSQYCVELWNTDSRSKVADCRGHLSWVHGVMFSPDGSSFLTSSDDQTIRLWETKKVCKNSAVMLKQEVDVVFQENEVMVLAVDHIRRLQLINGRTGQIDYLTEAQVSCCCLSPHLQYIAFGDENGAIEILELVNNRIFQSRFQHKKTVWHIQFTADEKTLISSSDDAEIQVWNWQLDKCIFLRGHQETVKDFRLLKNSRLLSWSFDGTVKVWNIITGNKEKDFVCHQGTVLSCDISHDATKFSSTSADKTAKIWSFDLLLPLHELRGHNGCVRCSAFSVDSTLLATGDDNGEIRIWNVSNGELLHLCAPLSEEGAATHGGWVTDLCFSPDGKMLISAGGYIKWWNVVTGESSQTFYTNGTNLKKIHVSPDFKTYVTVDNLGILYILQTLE
# Assay type: functional
Calls of active or inactive are those of the source.

{"columns": ["molecule", "system.name", "IC50"],
 "data": [
  ["O=C1C(C2=C(O)c3ccccc3C2=O)=Nc2ccccc21", "Apoptotic protease-activating factor 1 (Homo sapiens, UniProt O14727)", "1.31 µM (active)"],
  ["Cc1cc(N)c2cc(NC(=O)/C=C/c3ccccc3Cl)ccc2n1", "Apoptotic protease-activating factor 1 (Homo sapiens, UniProt O14727)", "9.95 µM (active)"],
  ["CCC(C)NC(=O)c1c(N)n(CCCOC)c2nc3ccccc3nc12 (centres undefined)", "Apoptotic protease-activating factor 1 (Homo sapiens, UniProt O14727)", "25.9 µM (active)"],
  ["CC(=O)Nc1ccc(NC2=C/C(=N/S(=O)(=O)c3cccs3)c3ccccc3C2=O)cc1", "Apoptotic protease-activating factor 1 (Homo sapiens, UniProt O14727)", "1.48 µM (active)"]
]}
